tested on: HCT-8 host cells (Hs18S); details: 10 µM
The threshold is 10. Values of Cytotoxicity (%) beneath it are tagged MET; values meeting or exceeding it are tagged NOT MET.

is_below(Cytotoxicity (%), 10) for CCC(C)C(NC)C(=O)O (centres unmarked) ? MET

is_below(Cytotoxicity (%), 10) for `O=C(O)[C@@H]1CCCN1` ? MET

is_below(Cytotoxicity (%), 10) for C[N+](C)(C)CCO.[Cl-] [CHOLINE CHLORIDE] ? NOT MET

is_below(Cytotoxicity (%), 10) for CC(=O)OC/C=C(\C)CC/C=C(\C)CC/C=C(\C)CC/C=C(\C)CC/C=C(\C)CC/C=C(\C)CC/C=C(\C)CC/C=C(\C)CCC=C(C)C [SOLANESYL ACETATE] ? MET

is_below(Cytotoxicity (%), 10) for COc1ccc(/C=C/C(=O)c2cc(O)ccc2O)cc1 [2',5'-DIHYDROXY-4-METHOXYCHALCONE] ? MET

Now, please, on to the next compound.
is_below(Cytotoxicity (%), 10) for O=C(O)CCCCCCCC(O)C(O)CCCCCCO (centres unmarked) ? NOT MET
